Tested on: 313798-341-R-J2-PDC spheroids, viability
assay_protocol: Anticancer human tumor 313798-341-R-J2-PDC patient-derived cervical squamous cell carcinoma cell line growth inhibition [PI3K]
condition_set: second compound 0.01 µM; first compound 0.001 µM; active compounds read low; spheroids with HUVEC and MSC
Each entry below carries its reported viability, T/C.
Give just the numeric value; % need not be written.

Would you please look over these solved cases?
CC(C)n1nc(-c2ccc3oc(N)nc3c2)c2c(N)ncnc21 + CC(Nc1ccc2c(c1)OCCn1cc(N3C(=O)OCC3C(F)F)nc1-2)C(N)=O    90.4
CC(C)n1nc(-c2ccc3oc(N)nc3c2)c2c(N)ncnc21 + COc1c(OCCCN2CCOCC2)ccc2c3n(c(=NC(=O)c4cnc(N)nc4)nc12)CCN3    83.9
Cn1ncnc1[C@H]1c2n[nH]c(=O)c3cc(F)cc(c23)N[C@@H]1c1ccc(F)cc1 + CC(Nc1ccc2c(c1)OCCn1cc(N3C(=O)OCC3C(F)F)nc1-2)C(N)=O    104
Cn1ncnc1[C@H]1c2n[nH]c(=O)c3cc(F)cc(c23)N[C@@H]1c1ccc(F)cc1 + COc1c(OCCCN2CCOCC2)ccc2c3n(c(=NC(=O)c4cnc(N)nc4)nc12)CCN3    107

Consider the additional molecule presented here.
Consider the molecule shown here: CC(=O)c1c(C)c2cnc(Nc3ccc(N4CCNCC4)cn3)nc2n(C2CCCC2)c1=O + CC(Nc1ccc2c(c1)OCCn1cc(N3C(=O)OCC3C(F)F)nc1-2)C(N)=O What is its recorded viability, T/C? 100

* * *

Each entry below carries its reported viability, T/C.
Test system: 313798-341-R-J2-PDC spheroids, viability
assay_protocol: Anticancer human tumor 313798-341-R-J2-PDC cell line growth inhibition [PI3K]
condition_set: second compound 0.316 µM; first compound 1 µM; active compounds read low; spheroids with HUVEC and MSC
Give just the numeric value; % need not be written.

Cn1ncc(Cl)c1-c1cc(C(=O)NC(CN)Cc2cccc(F)c2)sc1Cl (stereo not drawn) + CC(Nc1ccc2c(c1)OCCn1cc(N3C(=O)OCC3C(F)F)nc1-2)C(N)=O    41.4
C[C@@H](NC(=O)c1ncnc(N)c1Cl)c1ncc(C(=O)Nc2cc(C(F)(F)F)c(Cl)cn2)s1 + CC(Nc1ncnc2nc[nH]c12)c1cc2cccc(Cl)c2c(=O)n1-c1ccccc1    97.7

Consider the additional molecule presented here.
Consider the molecule shown here: CNC(=O)c1ccc(N2C(=S)N(c3ccc(C#N)c(C(F)(F)F)c3)C(=O)C2(C)C)cc1F + Cc1nc(NC(=O)N2CCCC2C(N)=O)sc1-c1ccnc(C(C)(C)C(F)(F)F)c1 What is its recorded viability, T/C? 102

* * *

System: 313798-341-R-J2-PDC spheroids, viability
assay_protocol: Anticancer human tumor 313798-341-R-J2-PDC cell line growth inhibition [PI3K];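 note: spheroids exposed to compounds for seven days; 100% = DMSO vehicle control viability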
condition_set: second compound 1 µM; first compound 0.316 µM; active compounds read low; spheroids with HUVEC and MSC
Each entry below carries its reported viability, T/C.
Give just the numeric value; % need not be written.

Would you please look over these solved cases?
C[C@@H](NC(=O)c1ncnc(N)c1Cl)c1ncc(C(=O)Nc2cc(C(F)(F)F)c(Cl)cn2)s1 + CC(Nc1ccc2c(c1)OCCn1cc(N3C(=O)OCC3C(F)F)nc1-2)C(N)=O    53.4
CNC(=O)c1ccc(N2C(=S)N(c3ccc(C#N)c(C(F)(F)F)c3)C(=O)C2(C)C)cc1F + CC(Nc1ccc2c(c1)OCCn1cc(N3C(=O)OCC3C(F)F)nc1-2)C(N)=O    53
CNC(=O)c1ccc(N2C(=S)N(c3ccc(C#N)c(C(F)(F)F)c3)C(=O)C2(C)C)cc1F + CC(Nc1ncnc2nc[nH]c12)c1cc2cccc(Cl)c2c(=O)n1-c1ccccc1    97.8
CCCS(=O)(=O)Nc1ccc(F)c(C(=O)c2c[nH]c3ncc(-c4ccc(Cl)cc4)cc23)c1F + CC(Nc1ncnc2nc[nH]c12)c1cc2cccc(Cl)c2c(=O)n1-c1ccccc1    98.8

Consider the additional molecule presented here.
Consider the molecule shown here: CC(C)NCC(C(=O)N1CCN(c2ncnc3c2C(C)CC3O)CC1)c1ccc(Cl)cc1 (stereo not given) + Cc1nc(NC(=O)N2CCCC2C(N)=O)sc1-c1ccnc(C(C)(C)C(F)(F)F)c1 What is its recorded viability, T/C? 86.2

* * *

Tested on: 313798-341-R-J2-PDC spheroids, viability
assay_protocol: Anticancer human tumor 313798-341-R-J2-PDC cell line growth inhibition [PI3K]; active means viability on the fitted dose curve at most 10% of control; inactive means the rest;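 note: spheroids exposed to compounds for seven days; 100% = DMSO vehicle control viability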
condition_set: second compound 0.316 µM; first compound 0.0949 µM; spheroids with HUVEC and MSC
# output must be one of active, inactive

Please review the entries below; each comes with its answer.
Cn1cnc2c(F)c(Nc3ccc(Br)cc3Cl)c(C(=O)NOCCO)cc21 + COc1c(OCCCN2CCOCC2)ccc2c3n(c(=NC(=O)c4cnc(N)nc4)nc12)CCN3    active
Cn1cnc2c(F)c(Nc3ccc(Br)cc3Cl)c(C(=O)NOCCO)cc21 + Cc1nc(NC(=O)N2CCCC2C(N)=O)sc1-c1ccnc(C(C)(C)C(F)(F)F)c1    inactive
Cn1cnc2c(F)c(Nc3ccc(Br)cc3Cl)c(C(=O)NOCCO)cc21 + CC(Nc1ccc2c(c1)OCCn1cc(N3C(=O)OCC3C(F)F)nc1-2)C(N)=O    inactive

We next turn to a different compound, shown below.
Which outcome was assigned to Cn1cnc2c(F)c(Nc3ccc(Br)cc3Cl)c(C(=O)NOCCO)cc21 + CC(Nc1ncnc2nc[nH]c12)c1cc2cccc(Cl)c2c(=O)n1-c1ccccc1 in this test? inactive

* * *

System: 313798-341-R-J2-PDC spheroids, viability
assay_protocol: Anticancer human tumor 313798-341-R-J2-PDC cell line growth inhibition [PI3K];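 note: spheroids exposed to compounds for seven days; 100% = DMSO vehicle control viability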
condition_set: second compound 0.316 µM; first compound 0.316 µM; active compounds read low; spheroids with HUVEC and MSC
Each entry below carries its reported viability, T/C.
Give just the numeric value; % need not be written.

Would you please look over these solved cases?
CNC(=O)c1ccc(N2C(=S)N(c3ccc(C#N)c(C(F)(F)F)c3)C(=O)C2(C)C)cc1F + Cc1nc(NC(=O)N2CCCC2C(N)=O)sc1-c1ccnc(C(C)(C)C(F)(F)F)c1    107
CC1(C)CCC(Nc2ncc(C(F)(F)F)c(-c3c[nH]c4c(P(C)(C)=O)c(C#N)ccc34)n2)CN1 (stereo not given) + Cc1nc(NC(=O)N2CCCC2C(N)=O)sc1-c1ccnc(C(C)(C)C(F)(F)F)c1    35.5

Consider the compound shown here: C=CC(=O)N1CCN(c2nc(=O)n(-c3c(C)ccnc3C(C)C)c3nc(-c4c(O)cccc4F)c(F)cc23)C(C)C1 (stereo not given) + CC(Nc1ncnc2nc[nH]c12)c1cc2cccc(Cl)c2c(=O)n1-c1ccccc1 What is its recorded viability, T/C? 106

Consider the compound shown here: C#Cc1c(F)ccc2cc(O)cc(-c3ncc4c(N5CC6CCC(C5)N6)nc(OCC56CCCN5CC(F)C6)nc4c3F)c12 (stereo not given) + COc1c(OCCCN2CCOCC2)ccc2c3n(c(=NC(=O)c4cnc(N)nc4)nc12)CCN3 What is its recorded viability, T/C? 16.7

Consider the compound shown here: CC(Cn1ccc(-c2ccc(C#N)c(Cl)c2)n1)NC(=O)c1cc(C(C)O)[nH]n1 (stereo not given) + Cc1nc(NC(=O)N2CCCC2C(N)=O)sc1-c1ccnc(C(C)(C)C(F)(F)F)c1 What is its recorded viability, T/C? 118

* * *

Test system: 313798-341-R-J2-PDC spheroids, viability
assay_protocol: Anticancer human tumor 313798-341-R-J2-PDC cell line growth inhibition [PI3K];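 note: spheroids exposed to compounds for seven days; 100% = DMSO vehicle control viability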
condition_set: second compound 0.316 µM; first compound 0.316 µM; active compounds read low; spheroids with HUVEC and MSC
For each record, check the reported viability, T/C: if it is below 20% write Criterion met, else write Criterion not met.

Please review the entries below; each comes with its answer.
CCCS(=O)(=O)Nc1ccc(F)c(C(=O)c2c[nH]c3ncc(-c4ccc(Cl)cc4)cc23)c1F + CC(Nc1ccc2c(c1)OCCn1cc(N3C(=O)OCC3C(F)F)nc1-2)C(N)=O    Criterion not met
C=CC(=O)N1CCN(c2nc(=O)n(-c3c(C)ccnc3C(C)C)c3nc(-c4c(O)cccc4F)c(F)cc23)C(C)C1 (stereo not given) + Cc1nc(NC(=O)N2CCCC2C(N)=O)sc1-c1ccnc(C(C)(C)C(F)(F)F)c1    Criterion not met
C=CC(=O)N1CCN(c2nc(=O)n(-c3c(C)ccnc3C(C)C)c3nc(-c4c(O)cccc4F)c(F)cc23)C(C)C1 (stereo not given) + COc1c(OCCCN2CCOCC2)ccc2c3n(c(=NC(=O)c4cnc(N)nc4)nc12)CCN3    Criterion met
Cn1nccc1Nc1nccc(-c2ccn(C(CO)c3ccc(Cl)c(F)c3)c(=O)c2)n1 (stereo not given) + Cc1nc(NC(=O)N2CCCC2C(N)=O)sc1-c1ccnc(C(C)(C)C(F)(F)F)c1    Criterion not met
CC(C)NCC(C(=O)N1CCN(c2ncnc3c2C(C)CC3O)CC1)c1ccc(Cl)cc1 (stereo not given) + CC(Nc1ccc2c(c1)OCCn1cc(N3C(=O)OCC3C(F)F)nc1-2)C(N)=O    Criterion not met

Regarding CNC(=O)c1ccc(N2C(=S)N(c3ccc(C#N)c(C(F)(F)F)c3)C(=O)C2(C)C)cc1F + CC(Nc1ncnc2nc[nH]c12)c1cc2cccc(Cl)c2c(=O)n1-c1ccccc1 , kindly confirm whether its viability, T/C is beneath 20%. Criterion not met

Regarding C#Cc1c(F)ccc2cc(O)cc(-c3ncc4c(N5CC6CCC(C5)N6)nc(OCC56CCCN5CC(F)C6)nc4c3F)c12 (stereo not given) + Cc1nc(NC(=O)N2CCCC2C(N)=O)sc1-c1ccnc(C(C)(C)C(F)(F)F)c1 , kindly confirm whether its viability, T/C is beneath 20%. Criterion not met

Regarding Cn1nccc1Nc1nccc(-c2ccn(C(CO)c3ccc(Cl)c(F)c3)c(=O)c2)n1 (stereo not given) + COc1c(OCCCN2CCOCC2)ccc2c3n(c(=NC(=O)c4cnc(N)nc4)nc12)CCN3 , kindly confirm whether its viability, T/C is beneath 20%. Criterion met

All values here come from PubChem BioAssay AID1963982.
